pIC50: −log10 of the molar value.
Record set: pIC50 | human HIF-PHD2 (Homo sapiens) | literature, multiple sources.

Look over these answered cases.
O=C(O)c1cnn(-c2nc(O)c3c(cnn3CCCOc3ccc(OCc4ccccc4)c(F)c3)n2)c1: 7.46
CC1(C)C(=O)C(C(=O)NCC(=O)O)=C(O)c2ccc(OCc3ccccc3)c(F)c21: 6.30 to 7.00
CC[C@@H](c1ccc(F)c(C)c1)n1ncc2nc(-n3cc(C(=O)O)cn3)nc(O)c21: 7.60
CC1(C#N)C(=O)C(C(=O)NCC(=O)O)=C(O)c2ccccc21 (centres unmarked): > 7.00
COc1ncc(-c2cnc3c(c2)c(O)c(C(=O)NCC(=O)O)c(=O)n3C)cn1: 7.00 to 7.30
C[C@H](NC(=O)c1c(O)c2ccc(C(F)(F)F)nc2n(C)c1=O)C(=O)O: 7.00 to 7.30
CC1(C)C(=O)C(C(N)=O)=C(O)c2cc(Cl)ccc21: < 5.00

// moving on: another record for pIC50
Task item: I'd like to know its pIC50. The compound in question is Cc1cc(F)cc(C(C)n2ncc3nc(-n4cc(C(=O)O)cn4)nc(O)c32)c1 (single isomer, unassigned)
Reply: 7.23
